Field pIC50: reported value for Cyclin-dependent kinase 9 (Homo sapiens); entries drawn from several documents.
pIC50: −log10 of the molar value.

COMPOUND	TESTED_SYSTEM	COMPARATIVE_SIGN	pIC50
COc1cc(F)ccc1-c1ccnc(Nc2cccc(NC(C)=O)c2)c1	Cyclin-dependent kinase 9 (Homo sapiens)	>	7.00
CCCn1cc(-c2ccnc(Nc3ccc(O)cc3)n2)c2cccnc21	Cyclin-dependent kinase 9 (Homo sapiens)	=	5.85
CC(C)N1CCOc2c(F)cc(-c3nc(Nc4ccc(N5CCOCC5)cn4)ncc3F)cc21	Cyclin-dependent kinase 9 (Homo sapiens)	=	6.55
O=C(COc1cccc2c1C(=O)N(C1CCC(=O)NC1=O)C2=O)NCCNC(=O)CN1CCC(NC(=O)c2n[nH]cc2NC(=O)c2c(Cl)cccc2Cl)CC1 (centres unmarked)	Cyclin-dependent kinase 9 (Homo sapiens)	=	8.40
C=CC(=O)Nc1ccc(C(=O)Nc2n[nH]c3c2CN(C(=O)N[C@H]2CCCN(C)C2)C3(C)C)cc1	Cyclin-dependent kinase 9 (Homo sapiens)	=	5.76
COc1cc(F)ccc1-c1ccnc(Nc2cccc(NS(C)(=O)=O)c2)c1	Cyclin-dependent kinase 9 (Homo sapiens)	>	7.00
CC(C)(C)c1cnc(CSc2cnc(NC(=O)CCCCCCC(=O)Nc3ccccc3N)s2)o1	Cyclin-dependent kinase 9 (Homo sapiens)	≥	7.00
COc1ccccc1-c1ccnc(Nc2cccc(CCS(N)(=O)=O)c2)c1	Cyclin-dependent kinase 9 (Homo sapiens)	>	7.00

----------
# IC50 against Cyclin-dependent kinase 9 (Homo sapiens), merged from multiple literature sources
OBSERVATION_TYPE: IC50 (nM)

MOLECULE	QUANTITY_UNIT	RECORDED_NUMBER
CC(C)(C)OC(=O)N1CCC(NC(=O)c2n[nH]cc2NC(=O)c2c(Cl)cccc2Cl)CC1	nM	11.3
CC(=O)N1CC[C@@]2(CC[C@@H](C(=O)Nc3cc(-c4cnn5c4CC(C)(C)C5)c(Cl)cn3)C2)C1 (single isomer, unassigned)	nM	5.5
CCn1cc(-c2ccnc(Nc3cccc(S(N)(=O)=O)c3)n2)c2cccnc21	nM	14
CCCS(=O)(=O)Nc1cccc(Nc2ncnc(-c3ccccc3OC)n2)c1	nM	111

----------
Values of IC50 for Cyclin-dependent kinase 9 (Homo sapiens), collected from a number of published sources:
OBSERVATION_TYPE: IC50

MOLECULE	RESULT
CC(=O)Nc1cccc(CC(=O)Nc2cc(-c3cnn4c3CC(C)(C)C4)c(Cl)cn2)c1	3.4 nM
CC1(C)Cc2c(-c3cc(NC(=O)[C@@H]4CCC[C@@H](c5cccnc5)C4)ncc3Cl)cnn2C1 (single isomer, unassigned)	2.8 nM
N#Cc1ccc(-n2cnc3cc(OCCOCCO)c(NC4CCS(=O)(=O)CC4)nc32)nc1	712 nM
COc1cc(F)ccc1-c1ccnc(Nc2cccc(CS(=O)(=O)N(C)C)c2)c1	< 100 nM
C=CC(=O)Nc1ccc(C(=O)Nc2n[nH]c3c2CN(C(=O)NC2CN(C)Cc4ccccc42)C3(C)C)cc1 (centres unmarked)	> 10000 nM
O=C(CNC(=O)COc1cccc2c1C(=O)N(C1CCC(=O)NC1=O)C2=O)NCCCCCCC(=O)N1CCC(NC(=O)c2n[nH]cc2NC(=O)c2c(Cl)cccc2Cl)CC1 (centres unmarked)	4.49 nM
CC(=O)Nc1cccc([C@H](C)C(=O)Nc2cc(-c3cnn4c3CC(C)(C)C4)c(Cl)cn2)c1	2.3 nM
COc1ccccc1-c1ccnc(Nc2ccccc2)c1	1000 to 10000 nM
CC1(C)Cc2c(-c3cc(NC(=O)Cc4cccc(C(N)=O)c4)ncc3Cl)cnn2C1	3 nM
O=C(COc1cccc2c1C(=O)N(C1CCC(=O)NC1=O)C2=O)NCCCCCCC(=O)N1CCC(NC(=O)c2n[nH]cc2NC(=O)c2c(Cl)cccc2Cl)CC1 (centres unmarked)	2.85 nM
Cn1cc([C@@H]2CCC[C@H](C(=O)Nc3cc(-c4cnn5c4CC(C)(C)C5)c(Cl)cn3)C2)cn1 (single isomer, unassigned)	3.8 nM
CCCn1cc(-c2ccnc(Nc3ccc(S(N)(=O)=O)cc3)n2)c2ccncc21	0.7 nM
CC(=O)N1CC[C@@]2(CC[C@H](C(=O)Nc3cc(-c4cnn5c4CC(C)(C)C5)c(Cl)cn3)C2)C1 (single isomer, unassigned)	3.2 nM
CC(=O)N[C@@H]1CCC[C@H](C(=O)Nc2cc(-c3cc(C#N)c4n3CC(C)(C)C4)c(Cl)cn2)C1	2.9 nM

----------
// note: pIC50 values for Cyclin-dependent kinase 9 (Homo sapiens) were reported in different studies
pIC50: −log10 of the molar value.

MOLECULE_SMILES	pIC50
Cc1nc(Nc2n[nH]c3c2CN(C(=O)N[C@H](CN(C)C)C2CCOCC2)C3(C)C)c2ccsc2n1	< 5.00
CCn1cc(-c2ccnc(Nc3ccc(O)cc3C)n2)c2ccccc21	< 5.00
NS(=O)(=O)Cc1cccc(Nc2ncnc(N3CCc4ncsc4C3)n2)c1	> 7.00
CCCNS(=O)(=O)Cc1cccc(Nc2cc(-c3ccc(F)cc3OC)ccn2)c1	6.00 to 7.00
NS(=O)(=O)Cc1cccc(Nc2ncnc(N3CCc4nc[nH]c4C3)n2)c1	> 7.00

----------
Please find below IC50 measurements for Cyclin-dependent kinase 9 (Homo sapiens), combined from several publications.

MOLECULE	IC50
CN(C)CCC1CCCCN1c1ncnc(Nc2cccc(CS(N)(=O)=O)c2)n1 (racemic)	1000 to 10000 nM
NS(=O)(=O)Cc1cccc(Nc2ncnc(N3Cc4cn[nH]c4C3)n2)c1	< 100 nM
NS(=O)(=O)Cc1cccc(Nc2ncnc(N3CCCCC3)n2)c1	1000 to 10000 nM
COc1ccccc1-c1ccnc(Nc2cccc(S(C)(=O)=O)c2)c1	< 100 nM
C=CC(=O)Nc1ccc(Nc2n[nH]c3c2CN(C(=O)N[C@H](CN(C)C)C2CCOCC2)C3(C)C)cc1	> 10000 nM
